experimental.details: Half-maximal inhibition of [125I]gastrin binding to guinea pig gastric glands
observable: pIC50
Scale: negative log10 of molar concentration, which is what pIC50 denotes.

Below, 3 molecules whose answers are already recorded.
molecule: O=C(NC1N=C(c2ccccc2)c2ccccc2NC1=O)c1cccc(Cl)c1 (stereo not given)
pIC50: 4.72

molecule: O=C(Cc1c[nH]c2ccccc12)NC1N=C(c2ccccc2)c2ccccc2NC1=O (stereo not given)
pIC50: 4.49

molecule: CN1C(=O)[C@@H](NC(=O)C(C)(C)C)N=C(c2ccccc2)c2ccccc21
pIC50: 4.89

--- query ---
Lab note: measured pIC50 of CCOC(=O)CN1C(=O)C(NC(=O)c2cc3ccccc3[nH]2)N=C(c2ccccc2F)c2ccccc21 (stereo not given) was 6.92

---

experimental.details: Half-maximal inhibition of [125I]gastrin binding to guinea pig gastric glands
observable: IC50

Below, 3 molecules whose answers are already recorded.
molecule: O=C(NC1N=C(c2ccccc2)c2ccccc2NC1=O)c1cccc2ccccc12 (stereo not given)
IC50: 29 µM
//
molecule: CC(C)(C)OC(=O)N[C@H](Cc1c[nH]c2ccccc12)C(=O)NC1N=C(c2ccccc2)c2ccccc2NC1=O (stereo not given in full)
IC50: > 100 µM
//
molecule: CN1C(=O)[C@H](NC(=O)C2CCCCC2)N=C(c2ccccc2)c2ccccc21
IC50: 1.5 µM

Lab note: measured IC50 of CN1C(=O)[C@@H](NC(=O)c2cccc(Br)c2)N=C(c2ccccc2F)c2ccccc21 was 0.75 µM

Lab note: measured IC50 of O=C(NC1N=C(c2ccccc2)c2ccccc2NC1=O)c1ccccc1Cl (stereo not given) was 52 µM

---

experimental.details: Half-maximal inhibition of [125I]CCK-33 binding to cholecystokinin receptor
observable: IC50

Lab note: measured IC50 of O=C1Nc2ccc(Cl)cc2C(c2ccccc2)=N[C@@H]1Cc1c[nH]c2ccccc12 was 3.4 µM

---

Items are presented alongside their recorded IC50.
experimental.details: Half-maximal inhibition of [125I]gastrin binding to guinea pig gastric glands
Note: unit µM is implicit; provide only the numeric part.

compound: CCOC(=O)CN1C(=O)C(NC(=O)c2ccccc2Cl)N=C(c2ccccc2F)c2ccccc21 (centres undefined)
observable: IC50
observed.measurement: 1.3

Lab note: measured IC50 of CN1C(=O)C(NC(=O)C(Cc2ccccc2)NC(=O)OC(C)(C)C)N=C(c2ccccc2F)c2ccccc21 (centres undefined) was 2.9

Lab note: measured IC50 of CC(C)C(=O)N[C@H]1N=C(c2ccccc2)c2ccccc2N(C)C1=O was 73

Lab note: measured IC50 of CN1C(=O)[C@@H](NC(=O)c2ccccc2I)N=C(c2ccccc2)c2ccccc21 was 38

Lab note: measured IC50 of CN1C(=O)[C@@H](NC(=O)/C=C/c2ccccc2)N=C(c2ccccc2)c2ccccc21 was 0.18

Lab note: measured IC50 of CCOC(=O)CN1C(=O)C(NC=O)N=C(c2ccccc2)c2ccccc21 (centres undefined) was 25

---

Items are presented alongside their recorded pIC50.
experimental.details: Half-maximal inhibition of [125I]gastrin binding to guinea pig gastric glands
Scale: negative log10 of molar concentration, which is what pIC50 denotes.

molecule: CCCCCc1ccc(C(=O)N[C@H]2N=C(c3ccccc3F)c3ccccc3N(C)C2=O)cc1
pIC50: 4.22
//
molecule: O=C(NC1N=C(c2ccccc2)c2ccccc2NC1=O)c1ccc(Cl)cc1 (stereo not given)
pIC50: 5.09
//
molecule: CN1C(=O)C(NC(=O)c2ccsc2)N=C(c2ccccc2F)c2ccccc21 (stereo not given)
pIC50: 4.96
//
molecule: O=C(CCc1c[nH]c2ccccc12)NC1N=C(c2ccccc2)c2ccccc2NC1=O (stereo not given)
pIC50: 4.77
//
molecule: O=C(NC1N=C(c2ccccc2F)c2ccccc2NC1=O)c1cc2cc(Cl)ccc2[nH]1 (stereo not given)
pIC50: 4.70

--- query ---
Lab note: measured pIC50 of CN1C(=O)[C@@H](NC(=O)c2ccc(Br)cc2)N=C(c2ccccc2F)c2ccccc21 was 6.17

Reference source: BindingDB's records for doi:10.1021/jm00120a002
